Data provenance is the supplement of paper PMC5998384.

Tested on: HeLa Kyoto
EXPERIMENT_NOTES: thermal stability score vs G1/S (z-score of summed log2 fold changes over temperatures); higher = more thermally stable than in G1/S
RUN_PARAMETERS: cell cycle stage: early G1 (4.5 h after nocodazole release)
OBSERVABLE: thermal stability score
Reply: number alone, nothing else.

May I ask what thermal stability score has been recorded for MDGPVAEHAKQEPFHVVTPLLESWALSQVAGMPVFLKCENVQPSGSFKIRGIGHFCQEMAKKGCRHLVCSSGGNAGIAAAYAARKLGIPATIVLPESTSLQVVQRLQGEGAEVQLTGKVWDEANLRAQELAKRDGWENVPPFDHPLIWKGHASLVQELKAVLRTPPGALVLAVGGGGLLAGVVAGLLEVGWQHVPIIAMETHGAHCFNAAITAGKLVTLPDITSVAKSLGAKTVAARALECMQVCKIHSEVVEDTEAVSAVQQLLDDERMLVEPACGAALAAIYSGLLRRLQAEGCLPPSLTSVVVIVCGGNNINSRELQALKTHLGQV [SDSL] ? -3.07

====

System: HeLa Kyoto
EXPERIMENT_NOTES: melting temperature (median over replicates), in situ; higher = more thermally stable
RUN_PARAMETERS: cell cycle stage: G1/S
OBSERVABLE: melting temperature (°C)
# number only, unit °C dropped from output

May I ask what melting temperature has been recorded for MAAEDELQLPRLPELFETGRQLLDEVEVATEPAGSRIVQEKVFKGLDLLEKAAEMLSQLDLFSRNEDLEEIASTDLKYLLVPAFQGALTMKQVNPSKRLDHLQRAREHFINYLTQCHCYHVAEFELPKTMNNSAENHTANSSMAYPSLVAMASQRQAKIQRYKQKKELEHRLSAMKSAVESGQADDERVREYYLLHLQRWIDISLEEIESIDQEIKILRERDSSREASTSNSSRQERPPVKPFILTRNMAQAKVFGAGYPSLPTMTVSDWYEQHRKYGALPDQGIAKAAPEEFRKAAQQQEEQEEKEEEDDEQTLHRAREWDDWKDTHPRGYGNRQNMG [IGBP1] ? 50.7

====

Tested on: HeLa Kyoto
EXPERIMENT_NOTES: solubility change mitosis vs G1/S (difference of NP-40 vs SDS log2 ratios) (log2 ratio difference); higher = more soluble in mitosis
Assign solubility change mitosis (log2) to each entry below.
Reply: number alone, nothing else.

May I ask what solubility change mitosis (log2) has been recorded for MANEVIKCKAAVAWEAGKPLSIEEIEVAPPKAHEVRIKIIATAVCHTDAYTLSGADPEGCFPVILGHEGAGIVESVGEGVTKLKAGDTVIPLYIPQCGECKFCLNPKTNLCQKIRVTQGKGLMPDGTSRFTCKGKTILHYMGTSTFSEYTVVADISVAKIDPLAPLDKVCLLGCGISTGYGAAVNTAKLEPGSVCAVFGLGGVGLAVIMGCKVAGASRIIGVDINKDKFARAKEFGATECINPQDFSKPIQEVLIEMTDGGVDYSFECIGNVKVMRAALEACHKGWGVSVVVGVAASGEEIATRPFQLVTGRTWKGTAFGGWKSVESVPKLVSEYMSKKIKVDEFVTHNLSFDEINKAFELMHSGKSIRTVVKI [ADH5] ? -0.171

May I ask what solubility change mitosis (log2) has been recorded for MFRRKLTALDYHNPAGFNCKDETEFRNFIVWLEDQKIRHYKIEDRGNLRNIHSSDWPKFFEKYLRDVNCPFKIQDRQEAIDWLLGLAVRLEYGDNAEKYKDLVPDNSKTADNATKNAEPLINLDVNNPDFKAGVMALANLLQIQRHDDYLVMLKAIRILVQERLTQDAVAKANQTKEGLPVALDKHILGFDTGDAVLNEAAQILRLLHIEELRELQTKINEAIVAVQAIIADPKTDHRLGKVGR [C14ORF166] ? 0.329

May I ask what solubility change mitosis (log2) has been recorded for MGLSPSAPAVAVQASNASASPPSGCPMHEGKMKGCPVNTEPSGPTCEKKTYSVPAHQERAYEYVECPIRGTAAENKENLDPSNLMPPPNQTPAPDQPFALSTVREESSIPRADSEKKWVYPSEQMFWNAMLKKGWKWKDEDISQKDMYNIIRIHNQNNEQAWKEILKWEALHAAECPCGPSLIRFGGKAKEYSPRARIRSWMGYELPFDRHDWIINRCGTEVRYVIDYYDGGEVNKDYQFTILDVRPALDSLSAVWDRMKVAWWRWTS [HCCS] ? -0.0745

May I ask what solubility change mitosis (log2) has been recorded for MCNTPTYCDLGKAAKDVFNKGYGFGMVKIDLKTKSCSGVEFSTSGHAYTDTGKASGNLETKYKVCNYGLTFTQKWNTDNTLGTEISWENKLAEGLKLTLDTIFVPNTGKKSGKLKASYKRDCFSVGSNVDIDFSGPTIYGWAVLAFEGWLAGYQMSFDTAKSKLSQNNFALGYKAADFQLHTHVNDGTEFGGSIYQKVNEKIETSINLAWTAGSNNTRFGIAAKYMLDCRTSLSAKVNNASLIGLGYTQTLRPGVKLTLSALIDGKNFSAGGHKVGLGFELEA [VDAC3] ? -0.0561
